EXPERIMENTAL SYSTEM: Prostaglandin G/H synthase 2 (Homo sapiens)
Sequence (P35354 whole entry): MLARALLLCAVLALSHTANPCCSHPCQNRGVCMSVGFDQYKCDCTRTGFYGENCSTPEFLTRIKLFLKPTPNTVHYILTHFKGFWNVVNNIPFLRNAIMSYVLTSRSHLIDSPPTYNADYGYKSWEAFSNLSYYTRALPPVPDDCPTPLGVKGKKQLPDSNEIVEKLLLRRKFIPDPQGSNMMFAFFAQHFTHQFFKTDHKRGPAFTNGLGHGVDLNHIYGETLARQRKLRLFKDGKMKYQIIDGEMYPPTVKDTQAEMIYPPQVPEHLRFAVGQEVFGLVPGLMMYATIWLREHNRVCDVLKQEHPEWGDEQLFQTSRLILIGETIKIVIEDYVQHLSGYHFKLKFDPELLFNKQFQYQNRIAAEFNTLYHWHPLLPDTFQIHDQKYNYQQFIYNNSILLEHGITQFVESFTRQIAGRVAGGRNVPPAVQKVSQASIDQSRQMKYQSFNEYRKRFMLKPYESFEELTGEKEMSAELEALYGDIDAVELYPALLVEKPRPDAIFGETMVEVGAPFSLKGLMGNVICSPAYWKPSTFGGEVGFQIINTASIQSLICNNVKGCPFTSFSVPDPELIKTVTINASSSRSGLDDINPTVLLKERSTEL
PROTOCOL TEXT: Inhibition of human recombinant COX-2 assessed as PGE2 production from arachidonic acid after 20 mins enzyme immunoassay
QUANTITY NAME: IC50
Answer with the figure and its unit, nothing else.

### Prompt Value wanted: IC50 (Prostaglandin G/H synthase 2 (Homo sapiens)) of entry CC(C)=CCc1c(-c2ccc(O)cc2O)oc2cc3c(c(O)c2c1=O)C=CC(C)(C)O3 [CUDRAFLAVONE B]
### Response 2500 nM
